system: minimal muscular or neurological impairment (rotorod); experiment: Acute toxicity - minimal motor impairment (rotorod); format: in vivo; conditions: mouse, in vivo, intraperitoneal; Test 7-2 table; TPT 6 hrs
endpoint.name: TD50 at 6 hrs (mg/kg)
One number for each entry, in mg/kg.

Entry "Cc1cc(Br)c(C(C)C)cc1O" : reported TD50 at 6 hrs = ?
398

====

Consider the following compounds; for each one, report its Toxicity Ratio.
tested on: minimal muscular or neurological impairment (rotorod); experiment: Acute toxicity - minimal motor impairment (rotorod); assay type: in vivo; details: Test 7-1 table; Mouse, IP, 100 mg/kg, TPT N/A

Answered examples (4):
Cc1cc(O)c(C(C)C)cc1Br [Ex. 132, 4-Bromo-2-isopropyl-5-methyl-phenol] | 0/4
Cc1cc(Br)c(C(C)(C)C)cc1O [Ex. 25, 4-Bromo-5-tert-butyl-2-methyl-phenol] | 0/8
CCc1cc(Br)c(C(C)C)cc1O [Ex. 64, 4-Bromo-2-ethyl-5-isopropyl-phenol] | 0/8
Cc1cc(Br)c(C(C)C)cc1O [Ex. 9, 4-bromo-5-isopropyl-2-methyl phenol] | 0/4

Now look at this one.
Entry CC(C)c1cc(O)c(C(C)(C)C)cc1Br [Ex. 204, 4-Bromo-2-tert-butyl-5-isopropyl-phenol] : reported Toxicity Ratio = ?
0/4

The measurements presented in this section are drawn from patent US9630896B2.
